assay: physchem; details: aqueous with cosolvent or surfactant or cyclodextrin, thermodynamic from solid, Estradiol and Testosterone solubility, both steroids together in aqueous HPβCD 250 mg/mL
reported_metric: solubility (mg/mL)
Report only the number, with the unit mg/mL understood.

Task item: Returns the measured solubility for the input compound. Input: `C[C@]12CC[C@H]3[C@@H](CCC4=CC(=O)CC[C@@]43C)[C@@H]1CC[C@@H]2O`
Reply: 20

----------
assay: physchem; details: aqueous with cosolvent or surfactant or cyclodextrin, thermodynamic from solid, solubility, steroid alone in aqueous HPβCD 250 mg/mL
reported_metric: solubility (mg/mL)
Only the number, expressed in mg/mL, is required.

Task item: Sample `C[C@]12CC[C@H]3[C@@H](CCC4=CC(=O)CC[C@@]43C)[C@@H]1CC[C@@H]2O` — what was its solubility?
Reply: 21.7

Every entry's value here was drawn from patent US6958142B2.
